- tgt: Aβ1-42 (Homo sapiens)
- Construct: purchased Bachem Inc; host or cells: synthetic peptide
- assayNotes: Disaggregation of aggregated Aβ1-42 followed by 90° light scattering
- Assay type: biochemical
- conditions: aromatic compound concentration 200 micromolar; read-out: % decrease in light scattering
experimentalEndpoint: inhibition at 200 µM (%)
Please give a number only; it is taken to be in %.

Give inhibition at 200 µM for Oc1ccc(Cl)cc1
20

Determine its reported inhibition at 200 µM: Nc1cc(Cl)ccc1O
12

Assign inhibition at 200 µM to the following record: O=[N+]([O-])c1ccc(O)c([N+](=O)[O-])c1
100

Read the entry Nc1cc([N+](=O)[O-])ccc1O and write its reported inhibition at 200 µM.
92

Provide only the value of recorded inhibition at 200 µM for Oc1ccc(Br)cc1
25

Supply inhibition at 200 µM value. Item: Nc1ccc([N+](=O)[O-])cc1O
44

Please look at this compound and report its inhibition at 200 µM: Nc1cccc(O)c1
18

Please give the documented inhibition at 200 µM of O=[N+]([O-])c1cccc(O)c1
60

Answer with the recorded inhibition at 200 µM for the compound listed here: CCc1ccc(O)cc1
0

Annotate the compound COc1ccc(N)cc1 with its measured inhibition at 200 µM.
48

Item COc1ccc([N+](=O)[O-])cc1 : provide inhibition at 200 µM
49

Respond only with inhibition at 200 µM recorded for Cc1ccc(O)cc1C
40

====

Kindly supply the reported pIC50 values for the records listed here.
- tgt: Aβ1-42 (Homo sapiens, UniProt P05067)
- Construct: purchased Bachem Inc; host or cells: synthetic peptide
- Sequence (P05067 672-713): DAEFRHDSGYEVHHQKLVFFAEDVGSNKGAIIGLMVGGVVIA
- assayNotes: Disaggregation of aggregated Aβ1-42 followed by 90° light scattering
- Type: biochemical
- conditions: aggregated Aβ1-42; light scattering measured 1.5 hour after addition; 23° C.; read-out: IC50 for disaggregation of Aβ
pIC50: −log10 of the molar value.

Return reported pIC50. Input compound: O=[N+]([O-])c1ccc(O)c([N+](=O)[O-])c1
~5.15

Determine from records and report pIC50 for O=[N+]([O-])c1cccc(O)c1
~4.10
